These entries and their values trace back to PubChem BioAssay (Tox21).

# Test Description: A CellTox Green Cytotoxicity Assay to monitor cytotoxicity in HEK293 cells - 16 hour (AID 1224888); further: nearly all actives have a fitted effect of over 35% in size
# Condition Info: CellTox Green fluorescence; series mostly up to 76.8 µM
Results filed as inconclusive are left out. Activity calls are given as the source filed them. The call rests on the fitted dose curve; in most records, active means well fitted activation curve with a large enough effect in the repeat runs; inconclusive means weak or mixed curves; inactive means flat fitted curve, though single readings scatter.
Mark one answer only. Choices: active, inactive

- Compound: "CCN(CC)c1ccc(N=Nc2ccccc2)cc1"
  Discrete Label: "inactive"
- Compound: "CCc1cccc(CC)c1"
  Discrete Label: "inactive"
- Compound: "C=C(C)C1CCC(C)CC1O (stereo not drawn)"
  Discrete Label: "inactive"
- Compound: "CN(C[C@@H](CC[N+]12CCC(C3CCCCC3)(CC1)CC2)c1ccc(Cl)c(Cl)c1)C(=O)c1cc(C(F)(F)F)cc(C(F)(F)F)c1"
  Discrete Label: "active"
- Compound: "C=Cc1ccc(O)c(OC)c1"
  Discrete Label: "inactive"
- Compound: "CCC(=O)OC/C=C(\\C)CCC=C(C)C"
  Discrete Label: "inactive"
- Compound: "NC(=O)C1CO1 (stereo not drawn)"
  Discrete Label: "inactive"
- Compound: "c1ccc2cc3c4ccccc4c4ccccc4c3cc2c1"
  Discrete Label: "inactive"

Query: Please let me know the test result on file for CCC(O)CO (stereo not drawn) .
Reply: inactive

Query: Please let me know the test result on file for SC1CCCCC1 .
Reply: inactive

Query: Please let me know the test result on file for O=C1OCc2ccccc21 .
Reply: inactive

Query: Please let me know the test result on file for O=S(=O)(c1ccc(OCc2ccccc2)cc1)c1ccccc1O .
Reply: inactive

Query: Please let me know the test result on file for Clc1cccc(Cl)n1 .
Reply: inactive

Query: Please let me know the test result on file for CCCCC/C=C\C=C\C(=O)OCC .
Reply: inactive

Query: Please let me know the test result on file for CCCCCCCCCCCCCCCCC(C(=O)O)C(O)(CC(=O)O)C(=O)O (stereo not drawn) .
Reply: inactive
